Values were extracted from ChEMBL document CHEMBL1126018.

# Target Under Test: Serotonin 2 (5-HT2) receptor (Rattus norvegicus) (UniProt P30994+P08909+P14842)
# Sequence (P08909 whole entry, looked up): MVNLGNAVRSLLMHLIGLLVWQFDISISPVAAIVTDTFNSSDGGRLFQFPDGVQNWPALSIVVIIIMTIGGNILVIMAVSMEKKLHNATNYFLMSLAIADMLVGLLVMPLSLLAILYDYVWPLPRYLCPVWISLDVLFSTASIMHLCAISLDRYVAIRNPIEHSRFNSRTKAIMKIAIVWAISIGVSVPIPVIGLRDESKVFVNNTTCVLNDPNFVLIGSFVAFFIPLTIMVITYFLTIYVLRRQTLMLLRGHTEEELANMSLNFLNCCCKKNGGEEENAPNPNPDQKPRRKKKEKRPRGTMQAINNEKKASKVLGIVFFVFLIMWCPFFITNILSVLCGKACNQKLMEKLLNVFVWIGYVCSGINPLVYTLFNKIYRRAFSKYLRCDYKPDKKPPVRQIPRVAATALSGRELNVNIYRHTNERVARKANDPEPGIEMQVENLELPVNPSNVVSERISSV
# Sequence (P14842 whole entry, looked up): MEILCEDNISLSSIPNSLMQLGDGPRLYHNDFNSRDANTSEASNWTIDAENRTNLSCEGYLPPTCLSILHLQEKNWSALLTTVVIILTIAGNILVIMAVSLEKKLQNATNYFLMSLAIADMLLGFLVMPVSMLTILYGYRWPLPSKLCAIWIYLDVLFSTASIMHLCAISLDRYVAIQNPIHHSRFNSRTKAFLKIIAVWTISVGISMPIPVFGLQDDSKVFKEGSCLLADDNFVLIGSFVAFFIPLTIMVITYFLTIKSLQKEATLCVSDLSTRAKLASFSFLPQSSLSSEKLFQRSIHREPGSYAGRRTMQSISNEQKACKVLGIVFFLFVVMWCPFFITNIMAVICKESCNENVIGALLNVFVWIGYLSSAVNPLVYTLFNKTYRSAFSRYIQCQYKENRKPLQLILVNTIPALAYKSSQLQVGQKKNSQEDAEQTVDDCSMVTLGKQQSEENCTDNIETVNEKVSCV
# Sequence (P30994 whole entry, looked up): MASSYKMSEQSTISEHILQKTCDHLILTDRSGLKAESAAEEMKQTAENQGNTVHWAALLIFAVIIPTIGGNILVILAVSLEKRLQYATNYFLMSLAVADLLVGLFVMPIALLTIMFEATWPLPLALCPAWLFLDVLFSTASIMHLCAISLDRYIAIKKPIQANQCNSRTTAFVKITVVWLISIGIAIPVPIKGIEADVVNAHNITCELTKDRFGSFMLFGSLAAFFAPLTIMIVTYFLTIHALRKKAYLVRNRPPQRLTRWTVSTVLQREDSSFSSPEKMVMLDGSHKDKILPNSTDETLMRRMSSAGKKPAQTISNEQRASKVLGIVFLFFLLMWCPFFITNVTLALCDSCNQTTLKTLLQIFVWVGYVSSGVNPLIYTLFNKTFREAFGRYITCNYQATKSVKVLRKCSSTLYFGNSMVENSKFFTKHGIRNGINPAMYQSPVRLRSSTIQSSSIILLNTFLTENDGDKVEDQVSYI
# Assay Protocol: In vivo inhibitory activity of 10 mg/kg compound in rats against elevation of BP caused by 5-HT (300 ug/kg, iv) through 5-hydroxytryptamine 2 receptor 1 hr after oral administration
# Assay type: functional, organism-based
# Parameters: dose 10 mg/kg
Let's look at some compounds and their measured inhibition.
Measurement Kind: inhibition (%)

> print(dat)
                                input.smiles  unit.descriptor  meas.value
 1  O=C(c1ccc(F)cc1)C1CCN(CCn2c(=O)nc3n(c2=O)CCCCC3)CC1                %          78
 2  O=C(c1ccc(F)cc1)C1(O)CCN(CCn2nc3n(c2=O)CCCC3)CC1                %          85
 3  O=c1n(CCN2CCC(=C(c3ccc(F)cc3)c3ccc(F)cc3)CC2)nc2n1CCCO2                %          89
 4  COc1ccc(C(=C2CCN(CCn3nc4n(c3=O)CCCC4)CC2)c2ccc(OC)cc2)cc1                %          41
 5  O=C(c1ccc(F)cc1)C1(O)CCN(CCCn2nc3n(c2=O)CCCCC3)CC1                %          72
 6  O=C(c1ccc(F)cc1)C1CCN(CCn2c(=O)nc3n(c2=O)CCC3)CC1                %          67
 7  O=c1nc2n(c(=O)n1CCN1CCC(=C(c3ccc(F)cc3)c3ccc(F)cc3)CC1)CCC2                %          83
 8  O=c1n(CCN2CCC(=C(c3ccc(F)cc3)c3ccc(F)cc3)CC2)nc2ccccn12                %          58
 9  O=c1n(CCN2CCC(=C(c3ccc(F)cc3)c3ccc(F)cc3)CC2)nc2n1CCCCC2                %          90
10  O=C(c1ccc(F)cc1)C1(O)CCN(CCn2c(=O)nc3n(c2=O)CCCC3)CC1                %          83
11  O=C(c1ccc(F)cc1)C1(c2ccc(F)cc2)CCN(CCn2nc3n(c2=O)CCCC3)CC1                %          11
12  O=c1n(CCN2CCC(=C(c3ccc(F)cc3)c3ccc(F)cc3)CC2)nc2n1CCSC2                %          67
13  O=C(c1ccc(F)cc1)C1CCN(CCCn2c(=O)nc3n(c2=O)CCCC3)CC1                %          78
14  O=C(c1ccc(F)cc1)C1CCN(CCn2nc3n(c2=O)CCC3)CC1                %          65
15  O=C(c1ccc(F)cc1)C1CCN(CCn2c(=O)nc3sccn3c2=O)CC1                %          79
